System: CEM-SS
Test: Compound was evaluated for antiviral activity against CEM SS cells infected with HIV-1(LAI strain).
Assay type: functional, cell-based
Details: Homo sapiens
Items are presented alongside their recorded IC50.
Just the number please, in µM, no unit attached.

# example entries with known answers
CCc1c(C)nc(Cl)c([N+](=O)[O-])c1[S+]([O-])c1cc(C)cc(C)c1 (stereo unspecified) = 3
Cc1cn([C@H]2C[C@H](N=[N+]=[N-])[C@@H](CO)O2)c(=O)[nH]c1=O = 3
CCc1c(C)nc(Cl)c([N+](=O)[O-])c1Sc1cc(C)cc(C)c1 = 8

Input: What value of IC50 has been recorded for this entry: "CCc1c(C)nc(O)c([N+](=O)[O-])c1Sc1cc(C)cc(C)c1"
Output: 6

Input: What value of IC50 has been recorded for this entry: "Cc1cc(C)cc(Sc2cc(CCCO)nc(O)c2[N+](=O)[O-])c1"
Output: 8

Input: What value of IC50 has been recorded for this entry: "CC(=O)OCCCc1cc(Sc2cc(C)cc(C)c2)c([N+](=O)[O-])c(O)n1"
Output: 1

* * *

System: CEM-SS
Assay: Compound was evaluated for cytotoxicity against CEM SS cells infected with HIV-1(LAI strain).
Assay type: functional
Details: Homo sapiens
Items are presented alongside their recorded CC50.

Input: What value of CC50 has been recorded for this entry: "Cc1cn([C@H]2C[C@H](N=[N+]=[N-])[C@@H](CO)O2)c(=O)[nH]c1=O"
Output: > 10 µM

Input: What value of CC50 has been recorded for this entry: "CC(=O)OCCCc1cc(Sc2cc(C)cc(C)c2)c([N+](=O)[O-])c(O)n1"
Output: > 1 µM

Input: What value of CC50 has been recorded for this entry: "CCc1c(C)nc(O)c([N+](=O)[O-])c1Sc1cc(C)cc(C)c1"
Output: > 10 µM

Input: What value of CC50 has been recorded for this entry: "CCc1c(C)nc(Cl)c([N+](=O)[O-])c1Sc1cc(C)cc(C)c1"
Output: > 1 µM

Input: What value of CC50 has been recorded for this entry: "Cc1cc(C)cc(Sc2cc(CCCO)nc(O)c2[N+](=O)[O-])c1"
Output: > 1 µM

Input: What value of CC50 has been recorded for this entry: CCc1c(C)nc(Cl)c([N+](=O)[O-])c1[S+]([O-])c1cc(C)cc(C)c1 (stereo unspecified)
Output: 8 µM
